# Tested on: S. pneumoniae D39V;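 note: OD595 on entry to stationary phase over no-drug wells; at most 1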
# experiment.description: fitness (endpoint OD595 vs no drug) (fraction); higher = more growth
# assay.conditions: first compound 0.05 µg/mL; partner 1 µg/mL

molecule	fitness
CCC[C@@H]1C[C@@H](C(=O)N[C@@H]([C@H]2O[C@H](SC)[C@H](O)[C@@H](O)[C@H]2O)[C@H](C)Cl)N(C)C1 [Clindamycin] + CC1=C\[C@@H](O)CC(=O)Cc2nc(co2)C(=O)N2CCC=C2C(=O)O[C@H](C(C)C)[C@H](C)/C=C/C(=O)NC\C=C\1 [Virginiamycin M1]	0.217
CCC[C@@H]1C[C@@H](C(=O)N[C@@H]([C@H]2O[C@H](SC)[C@H](O)[C@@H](O)[C@H]2O)[C@H](C)Cl)N(C)C1 [Clindamycin] + Cc1cc(NS(=O)(=O)c2ccc(N)cc2)no1 [Sulfamethoxazol]	0.206
CCC[C@@H]1C[C@@H](C(=O)N[C@@H]([C@H]2O[C@H](SC)[C@H](O)[C@@H](O)[C@H]2O)[C@H](C)Cl)N(C)C1 [Clindamycin] + COc1ccc(C[C@H](N)C(=O)N[C@H]2[C@@H](O)[C@H](n3cnc4c(N(C)C)ncnc43)O[C@@H]2CO)cc1 [Puromycin]	0.261
CCC[C@@H]1C[C@@H](C(=O)N[C@@H]([C@H]2O[C@H](SC)[C@H](O)[C@@H](O)[C@H]2O)[C@H](C)Cl)N(C)C1 [Clindamycin] + CC1=C(C(=O)O)N2C(=O)[C@@H](NC(=O)[C@H](N)c3ccccc3)[C@H]2SC1 [Cephalexin]	0.179

###

# Test system: S. aureus Newman;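 note: first quartile when negative (synergy) and third quartile when positive (antagonism)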
# experiment.description: Bliss interaction score (quartile over a dose matrix) (fitness difference); higher = more antagonism (negative = synergy)
Is Bliss interaction score at least -0.03? Then Condition met. If not, Condition not met.

compound	target.desc	class.name
O=C(O[C@@H]1Cc2c(O)cc(O)cc2O[C@@H]1c1cc(O)c(O)c(O)c1)c1cc(O)c(O)c(O)c1 [EGCG] + CCC[C@@H]1C[C@@H](C(=O)N[C@@H]([C@H]2O[C@H](SC)[C@H](O)[C@@H](O)[C@H]2O)[C@@H](C)O)N(C)C1 [Lincomycin]	S. aureus Newman	Condition not met
COc1c(N2C[C@@H]3CCCN[C@@H]3C2)c(F)cc2c(=O)c(C(=O)O)cn(C3CC3)c12 [Moxifloxacin] + CN[C@@H]1[C@H](O[C@H]2[C@H](O[C@H]3[C@H](O)[C@@H](O)[C@H](N=C(N)N)[C@@H](O)[C@@H]3N=C(N)N)O[C@@H](C)[C@]2(O)C=O)O[C@@H](CO)[C@H](O)[C@H]1O [Streptomycin]	S. aureus Newman	Condition not met
N[C@@H]1CONC1=O [CycloserineD] + O=C1CN(/N=C/c2ccc([N+](=O)[O-])o2)C(=O)N1 [Nitrofurantoin]	S. aureus Newman	Condition not met
C[C@@H](O)[C@H]1C(=O)N2C(C(=O)O)=C(SCCNC=N)C[C@H]12 [Imipenem] + Cn1nnc(-c2ccc(-c3ccc(N4C[C@H](CO)OC4=O)cc3F)cn2)n1 [Tedizolid]	S. aureus Newman	Condition met
CC(=O)O[C@H]1C[C@@]2(C)[C@@H](C[C@@H](O)[C@H]3[C@@]4(C)CC[C@@H](O)[C@@H](C)[C@@H]4CC[C@@]32C)/C1=C(\CCC=C(C)C)C(=O)O [Fusidic acid] + Clc1ccc(COC(Cn2ccnc2)c2ccc(Cl)cc2Cl)c(Cl)c1 [Miconazole]	S. aureus Newman	Condition not met
O=C(N[C@H](CO)[C@H](O)c1ccc([N+](=O)[O-])cc1)C(Cl)Cl [Chloramphenicol] + C[C@H]1c2cccc(O)c2C(=O)C2=C(O)[C@]3(O)C(=O)C(C(N)=O)=C(O)[C@@H](N(C)C)[C@@H]3[C@@H](O)[C@@H]21 [Doxycycline]	S. aureus Newman	Condition met
COc1c(N2C[C@@H]3CCCN[C@@H]3C2)c(F)cc2c(=O)c(C(=O)O)cn(C3CC3)c12 [Moxifloxacin] + Cc1onc(-c2ccccc2)c1C(=O)N[C@@H]1C(=O)N2[C@@H]1SC(C)(C)[C@@H]2C(=O)O [Oxacillin]	S. aureus Newman	Condition not met
C[C@@H](O)[C@H]1C(=O)N2C(C(=O)O)=C(SCCNC=N)C[C@H]12 [Imipenem] + COc1ccc(C[C@H](N)C(=O)N[C@H]2[C@@H](O)[C@H](n3cnc4c(N(C)C)ncnc43)O[C@@H]2CO)cc1 [Puromycin]	S. aureus Newman	Condition not met
CCC[C@@H]1C[C@@H](C(=O)N[C@@H]([C@H]2O[C@H](SC)[C@H](O)[C@@H](O)[C@H]2O)[C@H](C)Cl)N(C)C1 [Clindamycin] + CC(=O)O[C@H]1C[C@@]2(C)[C@@H](C[C@@H](O)[C@H]3[C@@]4(C)CC[C@@H](O)[C@@H](C)[C@@H]4CC[C@@]32C)/C1=C(\CCC=C(C)C)C(=O)O [Fusidic acid]	S. aureus Newman	Condition met
O=C(O[C@@H]1Cc2c(O)cc(O)cc2O[C@@H]1c1cc(O)c(O)c(O)c1)c1cc(O)c(O)c(O)c1 [EGCG] + CN(C)c1cc(NC(=O)CNC(C)(C)C)c(O)c2c1C[C@H]1C[C@H]3[C@H](N(C)C)C(O)=C(C(N)=O)C(=O)[C@@]3(O)C(O)=C1C2=O [Tigecycline]	S. aureus Newman	Condition not met
O=C(O[C@@H]1Cc2c(O)cc(O)cc2O[C@@H]1c1cc(O)c(O)c(O)c1)c1cc(O)c(O)c(O)c1 [EGCG] + CC(=O)O[C@H]1C[C@@]2(C)[C@@H](C[C@@H](O)[C@H]3[C@@]4(C)CC[C@@H](O)[C@@H](C)[C@@H]4CC[C@@]32C)/C1=C(\CCC=C(C)C)C(=O)O [Fusidic acid]	S. aureus Newman	Condition met
CC(=O)OC[C@H]1O[C@@H]([S-])[C@H](OC(C)=O)[C@@H](OC(C)=O)[C@@H]1OC(C)=O.CCP(CC)CC.[Au+] [Auranofin] + O=C(O[C@@H]1Cc2c(O)cc(O)cc2O[C@@H]1c1cc(O)c(O)c(O)c1)c1cc(O)c(O)c(O)c1 [EGCG]	S. aureus Newman	Condition not met
O=C(O[C@@H]1Cc2c(O)cc(O)cc2O[C@@H]1c1cc(O)c(O)c(O)c1)c1cc(O)c(O)c(O)c1 [EGCG] + CN[C@H](CC(C)C)C(=O)N[C@H]1C(=O)N[C@@H](CC(N)=O)C(=O)N[C@H]2C(=O)N[C@H]3C(=O)N[C@H](C(=O)N[C@H](C(=O)O)c4cc(O)cc(O)c4-c4cc3ccc4O)[C@H](O)c3ccc(c(Cl)c3)Oc3cc2cc(c3O[C@@H]2O[C@H](CO)[C@@H](O)[C@H](O)[C@H]2O[C@H]2C[C@](C)(N)[C@H](O)[C@H](C)O2)Oc2ccc(cc2Cl)[C@H]1O [Vancomycin]	S. aureus Newman	Condition not met
